Quick reference: protein stability index of the listed items.
B1: IFRG15 (parent)
chain: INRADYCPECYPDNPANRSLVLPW

# Variants of: B1
# TEST DESCRIPTION: protein stability index of a GFP-peptide fusion (GPS, HEK-293T) (PSI 1-6); higher = more stable;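 also: lentivirally expressed fusions sorted by FACS into six bins by GFP to DsRed ratio, PSI derived from sequencing read proportions per bin multiplied by bin number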
# MEASUREMENT SETUP: c terminus: a fixed tail appended
Give only the figure.

| VARIANT ANNOTATION | protein stability index |
| --- | --- |
| D13A | 1.94 |
| A4N | 2.2 |
| A4Q | 2.28 |
| A4I | 2.66 |
| L22C | 2.12 |
| L22M | 2.37 |
| R3L | 2.14 |

Inquiry: Field request: protein stability index | item: `I1D`
Reply text: 2.75

Every entry's value here was drawn from the supplement of paper PMC10567573.
